test system: Plasmodium falciparum; assay: Antimalarial activity against chloroquine-sensitive Plasmodium falciparum D6 after 72 hr by […] assay; type: functional, organism-based; conditions: D6, 72 h
Reported pIC50 values follow for various molecules
Schema: pIC50 number; meaning minus log10 of the concentration expressed in molar units.

CCOC(=O)Cc1ccc(Cc2cn(Cc3ccccc3)cn2)cc1 : 5.10

Kindly consider the entry below.
State, in one line, measured pIC50 of "CCOC(=O)C(=O)Nc1cc(Cc2ccc(CC)cc2)cc(NC(=O)Cc2ccc(Cc3cn(Cc4ccccc4)cn3)cc2)c1"
5.19
